These entries and their values trace back to patent US5175283A.

Biological target: human α-thrombin (Homo sapiens, UniProt P00734)
Construct: purified human α-thrombin dissolved in thrombin assay buffer
Assay: Concentration required for doubling thrombin clotting time in human plasma
Type: biochemical
Conditions: human citrated plasma, 10 U/ml human thrombin; read-out: ED50, drug concentration required to double clotting time
Structures can show the parent of a compound that is named as a salt.
Consider the following compounds and their measured IC (2-fold clotting time) readings.
// return numeric value only (unit: µM, not printed)

CC(=O)N1C(=O)[C@@H](CCCNC(=N)N)[C@@H]1C(=O)Nc1ccc(C)cc1 (relative stereo) [XVI, hydrochloride salt]	0.5

# lookup: IC (2-fold clotting time) of CC(=O)OC1C(CCCNC(=N)N)C(=O)N1C(C)=O (stereo not shown) [XX, hydrochloride salt]
0.34

Do the same for CN(C)c1cccc2c(S(=O)(=O)N3C(=O)[C@@H](CCCNC(=N)N)[C@@H]3C(=O)N3CCCCC3)cccc12 (relative stereo) [XII, hydrochloride salt] please
30

Do the same for CC(=O)N1C(=O)[C@@H](CCCNC(=N)N)[C@@H]1C(=O)O (relative stereo) [XIV, hydrochloride salt] please
12

Do the same for CC(=O)N1C(=O)[C@@H](CCCNC(=N)N)[C@@H]1C(=O)N1CCCCC1 (relative stereo) [Compound XI, hydrochloride salt] please
0.5

Do the same for CC(=O)N1C(=O)[C@@H](CCCNC(=N)N)[C@@H]1CCc1ccccc1 (relative stereo) [XV, hydrochloride salt] please
3

Do the same for COC(=O)[C@H]1[C@H](CCCNC(=N)N)C(=O)N1C(=O)Nc1ccccc1 (relative stereo) [V, hydrochloride salt] please
30

Do the same for CC(=O)N1C(=O)[C@H](CCCNC(=N)N)[C@@H]1C(=O)N1CCCCC1 (relative stereo) [XXIII, hydrochloride salt] please
20

Do the same for CC(=O)N1C(=O)[C@@H](CCCNC(=N)N)[C@@H]1S(=O)(=O)c1ccccc1 (relative stereo) [VI, hydrochloride salt] please
15

Do the same for Cc1ccc(S(=O)(=O)N2C(=O)[C@@H](CCCNC(=N)N)[C@@H]2C(=O)N2CCCCC2)cc1 (relative stereo) [XIII, hydrochloride salt] please
80

* * *

Molecular target: human α-thrombin (Homo sapiens, UniProt P00734)
Construct: purified human α-thrombin dissolved in thrombin assay buffer
Test: Concentration required for doubling thrombin clotting time in human plasma
Format: biochemical
Details: human citrated plasma, 10 U/ml human thrombin; read-out: ED50, drug concentration required to double clotting time
Structures can show the parent of a compound that is named as a salt.
ENDPOINT NAME: IC (2-fold clotting time) (µM)
// return numeric value only (unit: µM, not printed)

These recorded examples may help you get a feel for the data.
COC(=O)[C@H]1[C@H](CCCNC(=N)N)C(=O)N1S(=O)(=O)c1cccc2c(N(C)C)cccc12 (relative stereo) [III, hydrochloride salt]	50
CC(=O)OC1C(CCCNC(=N)N)C(=O)N1C(=O)c1ccccc1 (stereo not drawn) [XXII, hydrochloride salt]	10.0
COC(=O)[C@H]1[C@H](CCCCNC(=N)N)C(=O)N1S(=O)(=O)c1cccc2c(N(C)C)cccc12 (relative stereo) [XVII, hydrochloride salt]	50

# lookup: IC (2-fold clotting time) of CCS[C@H]1[C@H](CCCNC(=N)N)C(=O)N1C(C)=O (relative stereo) [VII, hydrochloride salt]
0.75

Do the same for CC(=O)N1C(=O)[C@@H](CCCNC(=N)N)[C@@H]1C(=O)NCC(=O)O (relative stereo) [Compound XIX, hydrochloride salt] please
0.43

Do the same for CN(C)c1cccc2c(S(=O)(=O)N3CC(CCCNC(=N)N)C3=O)cccc12 (stereo not drawn) [IX, hydrochloride salt] please
30

* * *

Molecular target: human α-thrombin (Homo sapiens, UniProt P00734)
Construct: purified human α-thrombin dissolved in thrombin assay buffer
Assay: Concentration required for doubling thrombin clotting time in human plasma
Format: biochemical
Conditions: human citrated plasma, 10 U/ml human thrombin; read-out: ED50, drug concentration required to double clotting time
Description: Procedure for Determining the Concentration Required for Doubling Thrombin Clotting Time--Clotting Time Assays The following reagents were used in these assays: Owren's Veronal Buffer: 125 mM NaCl, 28.4 mM sodium barbital, pH 7.35. […] Clotting Time Measurement Clotting times were determined by pipetting 0.1 ml of Owren's buffer (pre-warmed 37° C.) and 0.1 ml of human or rat plasma into yellow sample cuvettes. […] Detection of the fibrin clot was determined optically by the MLA 700. […]
Structures can show the parent of a compound that is named as a salt.
Consider the following compounds and their measured IC (2-fold clotting time) readings.
// return numeric value only (unit: µM, not printed)

These recorded examples may help you get a feel for the data.
COC(=O)[C@H]1[C@H](CCCNC(=N)N)C(=O)N1S(=O)(=O)c1ccc(C)cc1.Cl (relative stereo)	65
COC(=O)[C@H]1[C@H](CCCNC(=N)N)C(=O)N1C(C)=O (relative stereo) [II, hydrochloride salt]	1.25

# lookup: IC (2-fold clotting time) of CC(=O)N1C(=O)C(CCCNC(=N)N)C1C(=O)N1CCC[C@H]1C(=O)O (stereo partly drawn) [XVIII, hydrochloride salt]
1.25
